Assay: Half life in human liver microsomes at 1 uM by LC-MS/MS analysis
Type: ADME
Response field label takes MET when half-life at 1 µM is strictly below 8 min and NOT MET in all other cases.

Molecule: CC(=O)CC[C@H]1C(=O)N[C@@H](C(C)C)C(=O)N[C@@H](Cc2cccc(O)c2)C(=O)N2CCCC(N2)C(=O)O[C@H](/C(C)=C/C=C/C(=O)N2CCCCO2)C/C=C/C=C/[C@H](O)[C@H](C)[C@H]1O (stereo not given in full)
Class Assignment: NOT MET
--
Molecule: C=CCNC(=O)/C=C/C=C(\C)[C@@H]1C/C=C/C=C/[C@H](O)[C@H](C)[C@@H](O)[C@@H](CCC(C)=O)C(=O)N[C@@H](C(C)C)C(=O)N[C@@H](Cc2cccc(O)c2)C(=O)N2CCCC(N2)C(=O)O1 (stereo in doubt)
Class Assignment: NOT MET
--
Molecule: CCN(CC)C(=O)/C=C/C=C(\C)[C@@H]1C/C=C/C=C/[C@H](O)[C@H](C)[C@@H](O)[C@@H](CCC(C)=O)C(=O)N[C@@H](C(C)C)C(=O)N[C@@H](Cc2cccc(O)c2)C(=O)N2CCCC(N2)C(=O)O1 (stereo not given in full)
Class Assignment: NOT MET
--
Molecule: CNC(=O)/C=C/C=C(\C)[C@@H]1C/C=C/C=C/[C@H](O)[C@H](C)[C@@H](O)[C@@H](CCC(C)=O)C(=O)N[C@@H](C(C)C)C(=O)N[C@@H](Cc2cccc(O)c2)C(=O)N2CCCC(N2)C(=O)O1 (stereo in doubt)
Class Assignment: NOT MET
--
Molecule: CC(=O)CC[C@H]1C(=O)N[C@@H](C(C)C)C(=O)N[C@@H](Cc2cccc(O)c2)C(=O)N2CCCC(N2)C(=O)O[C@H](/C(C)=C/C=C/C(=O)Nc2ccccn2)C/C=C/C=C/[C@H](O)[C@H](C)[C@H]1O (stereo in doubt)
Class Assignment: MET
--
Molecule: CC(=O)CC[C@H]1C(=O)N[C@@H](C(C)C)C(=O)N[C@@H](Cc2cccc(O)c2)C(=O)N2CCCC(N2)C(=O)O[C@H](/C(C)=C/C=C/C(=O)N(C)C2CCCCC2)C/C=C/C=C/[C@H](O)[C@H](C)[C@H]1O (stereo not given in full)
Class Assignment: MET
--
Molecule: CC(=O)CC[C@H]1C(=O)N[C@@H](C(C)C)C(=O)N[C@@H](Cc2cccc(O)c2)C(=O)N2CCCC(N2)C(=O)O[C@H](/C(C)=C/C=C/C(=O)NC2CCCCC2)C/C=C/C=C/[C@H](O)[C@H](C)[C@H]1O (stereo in doubt)
Class Assignment: MET
--
Molecule: CC(=O)CC[C@H]1C(=O)N[C@@H](C(C)C)C(=O)N[C@@H](Cc2cccc(O)c2)C(=O)N2CCCC(N2)C(=O)O[C@H](/C(C)=C/C=C/C(=O)NC(C)C)C/C=C/C=C/[C@H](O)[C@H](C)[C@H]1O (stereo in doubt)
Class Assignment: NOT MET
--
Molecule: CON(C)C(=O)/C=C/C=C(\C)[C@@H]1C/C=C/C=C/[C@H](O)[C@H](C)[C@@H](O)[C@@H](CCC(C)=O)C(=O)N[C@@H](C(C)C)C(=O)N[C@@H](Cc2cccc(O)c2)C(=O)N2CCCC(N2)C(=O)O1 (stereo not given in full)
Class Assignment: NOT MET
--
Molecule: CC(=O)CC[C@H]1C(=O)N[C@@H](C(C)C)C(=O)N[C@@H](Cc2cccc(O)c2)C(=O)N2CCCC(N2)C(=O)O[C@H](/C(C)=C/C=C/C(=O)N(C)c2ccccn2)C/C=C/C=C/[C@H](O)[C@H](C)[C@H]1O (stereo not given in full)
Class Assignment: NOT MET
--
Molecule: CC(=O)CC[C@H]1C(=O)N[C@@H](C(C)C)C(=O)N[C@@H](Cc2cccc(O)c2)C(=O)N2CCCC(N2)C(=O)O[C@H](/C(C)=C/C=C/C(=O)N(CC(C)C)CC(C)C)C/C=C/C=C/[C@H](O)[C@H](C)[C@H]1O (stereo not given in full)
Class Assignment: NOT MET
--
Molecule: CC(=O)CC[C@H]1C(=O)N[C@@H](C(C)C)C(=O)N[C@@H](Cc2cccc(O)c2)C(=O)N2CCCC(N2)C(=O)O[C@H](/C(C)=C/C=C/C(=O)Nc2ccncc2)C/C=C/C=C/[C@H](O)[C@H](C)[C@H]1O (stereo not given in full)
Class Assignment: NOT MET
--
Molecule: CC(=O)CC[C@H]1C(=O)N[C@@H](C(C)C)C(=O)N[C@@H](Cc2cccc(O)c2)C(=O)N2CCCC(N2)C(=O)O[C@H](/C(C)=C/C=C/C(=O)Nc2cccnc2)C/C=C/C=C/[C@H](O)[C@H](C)[C@H]1O (stereo in doubt)
Class Assignment: MET
--
Molecule: CC(=O)CC[C@H]1C(=O)N[C@@H](C(C)C)C(=O)N[C@@H](Cc2cccc(O)c2)C(=O)N2CCCC(N2)C(=O)O[C@H](/C(C)=C/C=C/C(=O)N(C)C)C/C=C/C=C/[C@H](O)[C@H](C)[C@H]1O (stereo not given in full)
Class Assignment: NOT MET
